experiment: Human HepG2 cell viability assay in 384 well format; format: toxicity, cell-based; design: dose 125 nL, time 70.5 hour; concentration not given beside the values; settings: HepG2 cells, read-out: Inhibition
READOUT KIND: cytotoxicity at 70.5 h (%)

MOLECULE: Cc1nc(C(=O)N2CCN(S(C)(=O)=O)CC2)c(-c2cccc(F)c2)s1
OUTPUT UNIT: %
VALUE MEASURED: 9.8
//
MOLECULE: CC(C)CSCCCNC(=O)C1CCOCC1
OUTPUT UNIT: %
VALUE MEASURED: -5.98
//
MOLECULE: CNC(=O)CN1CCC(CN(C)CCSc2ccccc2)CC1
OUTPUT UNIT: %
VALUE MEASURED: -0.471
//
MOLECULE: O=C(NCCO)Nc1cnc2cc(Cl)ccc2c1O
OUTPUT UNIT: %
VALUE MEASURED: -5.27
//
MOLECULE: CC(C)(C)NC(=O)Cn1nc(C2CC2)cc(C(F)(F)F)c1=O
OUTPUT UNIT: %
VALUE MEASURED: -1.18
//
MOLECULE: CS(=O)(=O)N1CC(c2nc[nH]n2)c2cc(C(=O)NC3CCCC3)ccc21 (configuration not stated)
OUTPUT UNIT: %
VALUE MEASURED: -20.4
//
MOLECULE: CC(C)N1CC(C(=O)NCc2cccnc2-n2cccn2)CC1=O (configuration not stated)
OUTPUT UNIT: %
VALUE MEASURED: -11
//
MOLECULE: Cn1nccc1-c1nc2c(cc1C(=O)O)CCN(C(=O)C1CC1)CC2
OUTPUT UNIT: %
VALUE MEASURED: -2.87
//
MOLECULE: O=C(NC1(C(=O)O)CCCC1)C1Cc2cc(F)ccc2O1 (configuration not stated)
OUTPUT UNIT: %
VALUE MEASURED: 0.608
//
MOLECULE: CN1CCC2(CC1)C(=O)N(C)c1ccc(F)cc12
OUTPUT UNIT: %
VALUE MEASURED: 27.9
//
MOLECULE: CCc1ccc(C(=O)N2CCN(CC(O)CC)CC2)o1 (configuration not stated)
OUTPUT UNIT: %
VALUE MEASURED: 46.5
//
MOLECULE: CC(C)c1nnc(NC(=O)CCC(=O)NCC2CCCO2)s1 (configuration not stated)
OUTPUT UNIT: %
VALUE MEASURED: -12.5
//
MOLECULE: COCCC1COC2(CCN(C(=O)c3ccco3)CC2)C1 (configuration not stated)
OUTPUT UNIT: %
VALUE MEASURED: -5.74
//
MOLECULE: CC1CCN(CCCNC(=O)c2ccc(N(C)S(C)(=O)=O)cc2Cl)CC1
OUTPUT UNIT: %
VALUE MEASURED: -4.93
//
MOLECULE: c1ccc(CN2CCC3(CC2)CCN(Cc2cccs2)C3)nc1
OUTPUT UNIT: %
VALUE MEASURED: 0.064
//
MOLECULE: N[C@H]1CN(C(=O)c2ccccc2OCCc2ccccc2)C[C@@H]1C1CC1
OUTPUT UNIT: %
VALUE MEASURED: -8.08
//
MOLECULE: Cc1ccc(NS(=O)(=O)c2cnn(Cc3ccccc3)c2)c(C(=O)O)c1
OUTPUT UNIT: %
VALUE MEASURED: -21.3
//
MOLECULE: CN(C)C(CNC(=O)c1ccnc(-n2cncn2)c1)c1ccccc1 (configuration not stated)
OUTPUT UNIT: %
VALUE MEASURED: -9.4
//
MOLECULE: CCn1cc(CN2CC3CCCN3C[C@H]2C)c(C)n1 (some centres not stated)
OUTPUT UNIT: %
VALUE MEASURED: 2.28
//
MOLECULE: CCn1ncc(Nc2[nH]cnc3nncc2-3)c1C
OUTPUT UNIT: %
VALUE MEASURED: -3.49
//
MOLECULE: CC(C(N)=O)N1CCc2onc(-c3cccc(F)c3)c2C1 (configuration not stated)
OUTPUT UNIT: %
VALUE MEASURED: -12.5
//
MOLECULE: O=C(N[C@H]1CN(C2CCOCC2)C[C@@H]1C1CC1)c1cc(O)no1
OUTPUT UNIT: %
VALUE MEASURED: -7.33
//
MOLECULE: NC(=O)NCC1CCCCN1C(=O)c1cccc(Cl)c1 (configuration not stated)
OUTPUT UNIT: %
VALUE MEASURED: -4.19
//
MOLECULE: O=C(NC1CC1)C1CCc2nnc(-c3cccc(C(F)(F)F)c3)n21 (configuration not stated)
OUTPUT UNIT: %
VALUE MEASURED: -11.5
//
MOLECULE: CC(C)N(C)C(=O)Cn1ncc(N(C)CCc2ccccc2)cc1=O
OUTPUT UNIT: %
VALUE MEASURED: -3.47
//
MOLECULE: Cc1noc(C)c1C(=O)N1C[C@@H]2CN(Cc3cccnc3)CCO[C@@H]2C1
OUTPUT UNIT: %
VALUE MEASURED: -7.03
//
MOLECULE: CCN(CC)CCCNc1nccc(-c2cn(C)nc2C)n1
OUTPUT UNIT: %
VALUE MEASURED: -3.41
//
MOLECULE: Cc1ccccc1C(=O)N1CC2(COC(C)(C)OC2)C1
OUTPUT UNIT: %
VALUE MEASURED: 9.04
//
MOLECULE: Cc1ccccc1CC(=O)N(C)CC1(O)CCCN(c2ccccn2)C1 (configuration not stated)
OUTPUT UNIT: %
VALUE MEASURED: -5.53
//
MOLECULE: COc1cc(C)c(C(C)Nc2ncc(C(N)=O)cc2Cl)cc1OC (configuration not stated)
OUTPUT UNIT: %
VALUE MEASURED: -12.8
//
MOLECULE: COC(=O)N1CCC(Nc2ccc(Cl)c(C#N)n2)CC1
OUTPUT UNIT: %
VALUE MEASURED: -0.879
//
MOLECULE: CCn1ccnc1CN1CCCC1Cn1cc(C)cn1 (configuration not stated)
OUTPUT UNIT: %
VALUE MEASURED: 4.18
//
MOLECULE: CCc1ocnc1C(=O)N1CCOC(c2nc(C(C)C)n[nH]2)C1 (configuration not stated)
OUTPUT UNIT: %
VALUE MEASURED: -10.4
//
MOLECULE: COCC1COCCC12CCN(C(=O)CCOc1ccccc1)CC2 (configuration not stated)
OUTPUT UNIT: %
VALUE MEASURED: -2.28
//
MOLECULE: COc1ncccc1CN1C[C@H]2C[C@@H](C(=O)NCC3CC3)N(C)[C@H]2C1
OUTPUT UNIT: %
VALUE MEASURED: -12.9
//
MOLECULE: COCCCC1(CO)CCCN(Cc2cccc(C#N)c2)C1 (configuration not stated)
OUTPUT UNIT: %
VALUE MEASURED: -5.8
//
MOLECULE: COCCc1noc(C2CCCN(c3ncnc4c3CCC4)C2)n1 (configuration not stated)
OUTPUT UNIT: %
VALUE MEASURED: -13.9
//
MOLECULE: CN(Cc1ccno1)C(=O)c1cccc(CC2CCNCC2)c1
OUTPUT UNIT: %
VALUE MEASURED: 6.56
//
MOLECULE: Cc1nn(C(C)C)c(C)c1S(=O)(=O)Nc1ccc(C(=O)O)c(Cl)c1
OUTPUT UNIT: %
VALUE MEASURED: -5.52
//
MOLECULE: COC(=O)N1CCC(Oc2ccc(C(=O)NCCN(C)C)cc2Cl)CC1
OUTPUT UNIT: %
VALUE MEASURED: -8.08
//
MOLECULE: Cc1ccc(NC(=O)CC2Cn3ncnc3NC2=O)cc1C (configuration not stated)
OUTPUT UNIT: %
VALUE MEASURED: -8.36
//
MOLECULE: CC(C)c1nc(CN2CCCN(c3nccs3)CC2)no1
OUTPUT UNIT: %
VALUE MEASURED: 6.41
//
MOLECULE: CCN1CCOCC2(CCCN(C(=O)c3ccncc3F)C2)C1 (configuration not stated)
OUTPUT UNIT: %
VALUE MEASURED: -3.01
//
MOLECULE: CC(=O)N1CCN(CCNS(=O)(=O)c2ccc(C)c(F)c2)CC1
OUTPUT UNIT: %
VALUE MEASURED: 28.3
//
MOLECULE: O=C1CO[C@@H]2CN(S(=O)(=O)c3ccccc3)C[C@H]2N1CC1CC1
OUTPUT UNIT: %
VALUE MEASURED: -13.1
//
MOLECULE: Cc1cc2c(cc1NC(=O)NCC(C)C)OCO2
OUTPUT UNIT: %
VALUE MEASURED: -8.91
//
MOLECULE: COCCN1CCC2(CC1)CN(Cc1cccc(C)n1)C(=O)CO2
OUTPUT UNIT: %
VALUE MEASURED: 0.221
